Every entry's value here was drawn from patent US11142515B2.

molecular target: p38MAPKγ (MAPK12) (Homo sapiens); construct: purchased Life Technologies; experiment: p38 MAPKγ enzyme inhibition (Z-LYTE FRET); format: biochemical; conditions: Table 2B, unit inferred; read-out: p38 MAPKγ (Enzyme Profile)
Sequence (P53778 whole entry): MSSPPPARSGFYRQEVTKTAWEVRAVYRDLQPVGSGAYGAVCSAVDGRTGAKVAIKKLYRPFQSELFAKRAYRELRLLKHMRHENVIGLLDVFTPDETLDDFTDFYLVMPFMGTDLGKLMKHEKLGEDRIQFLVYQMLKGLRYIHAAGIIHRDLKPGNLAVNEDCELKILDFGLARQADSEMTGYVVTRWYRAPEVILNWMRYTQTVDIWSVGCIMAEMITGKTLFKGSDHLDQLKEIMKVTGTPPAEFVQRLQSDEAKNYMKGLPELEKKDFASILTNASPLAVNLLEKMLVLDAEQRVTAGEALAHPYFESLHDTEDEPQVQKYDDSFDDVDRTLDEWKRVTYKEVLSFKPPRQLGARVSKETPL
Experimental Readout: IC50 (nM)

# Compound String, Unit Text, Assay Value
data = [
    ("Cc1ccc(-n2nc(C(C)(C)C)cc2NC(=O)Nc2ccc(OCc3ccnc(Nc4cnc(CN5CCOCC5)cn4)c3)c3ccccc23)cc1", "nM", 218),
]

(P) Cc1ccc(-n2nc(C(C)(C)C)cc2NC(=O)Nc2ccc(OCc3ccnc(Nc4cnc(C(=O)NC[C@H](O)CN5CCOCC5)cn4)c3)c3ccccc23)cc1
(Q) Cc1ccc(-n2nc(C(C)(C)C)cc2NC(=O)Nc2ccc(OCc3ccnc(Nc4cnccn4)c3)c3ccccc23)cn1
Which value of IC50 is numerically greater: that of P or that of Q ? Kindly give the label for the entry you pick. Q
(Q: 111 nM, P: 63 nM)

###

target: p38 MAPKα isoform (MAPK14) (Homo sapiens, UniProt Q16539); construct: purchased Life Technologies; experiment: p38 MAPKα enzyme inhibition (Z-LYTE FRET); format: biochemical; settings: Table 2B, unit inferred; read-out: p38 MAPKα (Enzyme Profile)
Sequence (Q16539 whole entry, canonical isoform): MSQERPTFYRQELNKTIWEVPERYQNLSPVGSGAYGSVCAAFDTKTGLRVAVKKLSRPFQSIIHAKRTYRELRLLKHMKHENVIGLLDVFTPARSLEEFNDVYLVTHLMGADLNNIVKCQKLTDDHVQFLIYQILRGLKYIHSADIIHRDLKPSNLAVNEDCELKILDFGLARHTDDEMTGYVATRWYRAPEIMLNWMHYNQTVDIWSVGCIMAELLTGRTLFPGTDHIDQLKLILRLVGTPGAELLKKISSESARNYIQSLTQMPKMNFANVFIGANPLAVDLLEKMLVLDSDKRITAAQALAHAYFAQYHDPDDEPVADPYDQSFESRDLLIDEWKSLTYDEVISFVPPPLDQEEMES
Experimental Readout: IC50 (nM)

(1) COc1ccc(-n2nc(C(C)(C)C)cc2NC(=O)Nc2ccc(OCc3ccnc(Nc4cncc(N(C)C)n4)c3)c3ccccc23)cc1
(2) Cc1cc(F)cc(-n2nc(C(C)(C)C)cc2NC(=O)Nc2ccc(OCc3ccnc(Nc4cnc(C(=O)N5CCCC5)cn4)c3)c3ccccc23)c1
For the pair 1 and 2 , which entry has the numerically smaller recorded IC50? Returns: label corresponding to the selected item. 1

###

biological target: p38 MAPKα isoform (MAPK14) (Homo sapiens, UniProt Q16539); construct: purchased Life Technologies; assay: p38 MAPKα enzyme inhibition (Z-LYTE FRET); type: biochemical; settings: Table 2B, unit inferred; read-out: p38 MAPKα (Enzyme Profile)
pIC50: −log10 of the molar value.
Experimental Readout: pIC50

# Compound String, pIC50
rows = [
    ("COc1cncc(Nc2cc(COc3ccc(NC(=O)Nc4cc(C(C)(C)C)nn4-c4ccc(CO)cc4)c4ccccc34)ccn2)n1", 8.80),
    ("CNC(=O)c1cnc(Nc2cc(COc3ccc(NC(=O)Nc4cc(C(C)(C)C)nn4-c4cccc(C)c4)c4ccccc34)ccn2)cn1", 7.80),
    ("COCc1cccc(-n2nc(C(C)(C)C)cc2NC(=O)Nc2ccc(OCc3ccnc(Nc4cnc(C(=O)N5CCCC5)cn4)c3)c3ccccc23)c1", 7.62),
]

(I) COCCCc1cnc(Nc2cc(COc3ccc(NC(=O)Nc4cc(C(C)(C)C)nn4-c4ccc(C)cc4)c4ccccc34)ccn2)cn1
(II) COCc1cnc(Nc2cc(COc3ccc(NC(=O)Nc4cc(C(C)(C)C)nn4-c4cccc(C)c4)c4ccccc34)ccn2)cn1
(III) Cc1ccc(-n2nc(C(C)(C)C)cc2NC(=O)Nc2ccc(OCc3ccnc(Nc4cncc(OCC(C)C)n4)c3)c3ccccc23)cc1
(IV) COc1cccc(-n2nc(C(C)(C)C)cc2NC(=O)Nc2ccc(OCc3ccnc(Nc4cnccn4)c3)c3ccccc23)c1
Hello, I need these entries ordered by pIC50, highest reading first. Thanks! When ranking, write the labels in the order the request describes. IV, II, I, III

(A) CCc1cncc(Nc2cc(COc3ccc(NC(=O)Nc4cc(C(C)(C)C)nn4-c4cccc(COC)c4)c4ccccc34)ccn2)n1
(B) Cc1ncc(Nc2cc(COc3ccc(NC(=O)Nc4cc(C(C)(C)C)nn4-c4cccc(Cl)c4)c4ccccc34)ccn2)nc1C
Between item A and item B , which reported pIC50 is smaller? In your reply, give the label of the chosen option. B
(B: 7.34, A: 7.64)
